# assayed_target: SARS-COV-2 RBD-MMH (SARS-COV-2 RBD extracellular domain with C-terminal myc-myc-hexahistidine tag) (SARS-CoV-2)
measure_name: t½ at pH 6.0 (min)
A number alone suffices; assume min.

mAb14315 (antibody, V domains shown) VH: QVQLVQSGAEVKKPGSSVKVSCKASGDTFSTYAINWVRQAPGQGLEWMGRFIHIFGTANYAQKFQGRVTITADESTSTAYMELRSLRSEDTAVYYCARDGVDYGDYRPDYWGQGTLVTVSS VL: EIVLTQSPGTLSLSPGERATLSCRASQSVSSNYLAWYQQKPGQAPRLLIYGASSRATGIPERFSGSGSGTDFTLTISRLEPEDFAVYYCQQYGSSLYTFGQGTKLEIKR = 12.2
mAb14312 (antibody, V domains shown) VH: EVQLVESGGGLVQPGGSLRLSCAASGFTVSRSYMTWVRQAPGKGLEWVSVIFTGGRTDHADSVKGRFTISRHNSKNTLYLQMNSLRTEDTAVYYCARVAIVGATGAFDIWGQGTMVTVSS VL: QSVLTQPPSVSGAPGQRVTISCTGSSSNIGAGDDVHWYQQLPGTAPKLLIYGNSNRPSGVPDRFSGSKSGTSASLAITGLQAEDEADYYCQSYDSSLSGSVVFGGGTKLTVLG = 6.5

Turning now to a further record.
Task: Report t½ at pH 6.0, nothing else, for this binder: mAb14235 (antibody, V domains shown) VH: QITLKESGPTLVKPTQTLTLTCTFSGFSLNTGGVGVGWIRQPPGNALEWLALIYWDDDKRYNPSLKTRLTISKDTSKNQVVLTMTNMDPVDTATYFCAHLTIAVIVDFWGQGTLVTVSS VL: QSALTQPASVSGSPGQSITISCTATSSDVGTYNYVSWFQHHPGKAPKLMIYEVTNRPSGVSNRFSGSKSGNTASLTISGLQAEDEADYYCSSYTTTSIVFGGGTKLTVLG
Output: 10.1
